These measurements were taken from PubChem BioAssay.

- test_details: anti-His antibody binders, primary screen, artefact control for SMM control protein annotation, biochemical, small-molecule microarray, 635 nm fluorescence (AID 1128);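 further: score merges feature fluorescence with signal-to-noise for each printed compound spot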
- condition_info: anti-His Alexa647 antibody binding, higher = more signal
So basically: composite z-score at 0.8 or higher? That is YES. Lower than 0.8? That is NO.

Reference set (3 entries):
| compound | category |
| --- | --- |
| COc1ccc(C(O)C2C=CC3C(=O)N(c4ccccc4)C(=O)C3N2Nc2ccccc2F)c2ccccc12 (stereo not given) | YES |
| CCCCCCc1nc(Cc2cc(OC)c(OC)c(OC)c2)c(C)c2c1[Si](C(C)C)(C(C)C)OC2 | NO |
| CC(C)(C)OC(=O)CC[C@@]1(C(N)=O)N=C(c2ccc(OCCCO)cc2)O[C@@H]1c1ccccc1CN=[N+]=[N-] | YES |

Ask: Does the reported composite z-score for O=C/C=C/c1ccc(-c2ccccc2)cc1 fall at or above the 0.8 mark?
Reply: NO

Ask: Also C=CCOC(=O)[C@@H]1[C@H]2C(=O)O[C@H](c3ccccc3)[C@H](c3ccccc3)N2[C@H](c2ccc(OCCOC(=O)[C@@H]3C[C@@H]4C(=O)N[C@@H](CC(C)C)C(=O)N4[C@@H]3c3ccc(O)cc3)cc2)[C@@]12C(=O)Nc1ccc(I)cc12 , if possible.
Reply: YES

Ask: Also CO[C@H]1O[C@H](CO)[C@@H](OC(=O)Nc2ccccc2)[C@@H]2OC(=O)[C@@H](Cc3ccccc3)C/C=C/C[C@H](Cc3ccccc3)C(=O)O[C@@H]12 , if possible.
Reply: YES

---

Reported composite z-score values for a set of compounds
- test_details: binders of probe aFSTL3 on microarray, primary screen, stem cell growth factor project, biochemical, small-molecule microarray, fluorescence 635/667 (AID 1064);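 further: measures binding of the biotinylated anti-FSTL3 antibody to printed compounds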
- condition_info: higher = more signal
The answer should be a number; do not append a unit.

Some compounds with known composite z-score results, for comparison:
| compound | composite z-score |
| --- | --- |
| COCCOC(=O)N1C(=O)[C@@]2(c3cc(C#CCNC(N)=O)ccc31)[C@H](c1ccc(O)cc1)N1[C@H](c3ccccc3)[C@H](c3ccccc3)OC(=O)[C@H]1[C@@H]2C(=O)N1CCc2cc(OC)c(OC)cc2C1 | 0.141 |
| N#Cc1ccc(NN2C(C(O)c3ccc(B(O)O)cc3)C=CC3CN(c4ccccc4)C(=O)C32)cc1 (stereo unspecified) | 0.057 |
| CCOC(=O)C[C@H]1[C@H](OC(=O)c2ccc(-c3ccccc3)cc2)[C@@H](NC(=O)c2ccc(-c3ccccc3)cc2)c2cc(OCCCO)ccc2N1C(=O)c1ccccc1 | -0.326 |
| COc1ccc(C(=O)Nc2ccc(CN3C(=O)[C@@]4(O[C@@H](CC(=O)N(CCO)Cc5ccccc5)[C@H]([Si](C)(C)c5ccc(OC)cc5)[C@H]4C)c4ccccc43)cc2)cc1 | -0.0679 |
| CN1C(=O)C2C=CC(C(O)COCc3ccccc3)N(Nc3ccc([N+](=O)[O-])cc3[N+](=O)[O-])C2C1=O (stereo unspecified) | 0.0982 |

Ask: Name the reported composite z-score value associated with the compound CC(C)(C)OC(=O)CC[C@@]1(C(N)=O)N=C(c2ccc(OCCCO)cc2)O[C@@H]1c1ccccc1CN=[N+]=[N-]
Reply: 0.389
